# Test system: DU145 (human prostate cell line)
# experiment_description: MTT cytotoxicity assay, DU145
# Type: cell-based
# measurement_context: DU-145, 48 h, read-out: IC50 DU145
Please respond with reported IC50 for every item in the list.
Mention the unit after the number when you answer.

compound: O=C(/C=C/C=C/c1ccccc1)c1ccccc1OCc1ccccc1 [Compound 5k]
target_or_test_system: DU145 (human prostate cell line)
IC50: 55.6 µM

Parameter requested: IC50. Apply to each item below.
1. O=C(/C=C/C=C/c1ccccc1)c1ccccc1OCc1cccc(Cl)c1 [Compound 5a]
2. O=C(/C=C/C=C/c1ccccc1)c1ccccc1O [Compound 3]

Outgoing:
1. 45.2 µM
2. 83.5 µM
